# ASSAYED TARGET: UniProt Q64669
# Sequence (Q64669 whole entry): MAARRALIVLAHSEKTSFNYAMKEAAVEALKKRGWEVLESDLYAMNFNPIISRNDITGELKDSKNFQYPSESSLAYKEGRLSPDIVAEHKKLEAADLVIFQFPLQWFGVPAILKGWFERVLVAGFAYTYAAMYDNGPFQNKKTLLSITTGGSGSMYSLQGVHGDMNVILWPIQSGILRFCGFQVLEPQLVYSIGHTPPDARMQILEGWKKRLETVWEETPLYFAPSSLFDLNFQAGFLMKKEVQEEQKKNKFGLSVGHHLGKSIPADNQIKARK
# ASSAY COMMENT: Activation of Quinone reductase-1 in mouse Hepa-1c1c7 cells assessed as induction ratio at 20 ug/ml after 48 hrs by MTT assay
# Format: cell-based
Where a SMILES comes first, the peptide text is derived from it. Side-chain parts run from the residue outwards. The star is where a group is joined. Boc = CC(C)(C)OC(=O)*
EXPERIMENTAL READOUT: Ratio
Give a plain numeric answer without units written out.

Report Ratio on UniProt Q64669 for this entry: C[C@H](NC(=O)OCc1ccccc1)C(=O)N[C@@H](Cc1ccccc1)C(=O)O
1.1

Report Ratio on UniProt Q64669 for this entry: C[C@H](O)[C@H](NC(=O)[C@H](Cc1ccccc1)NC(=O)OCc1ccccc1)C(=O)O
2.2

Report Ratio on UniProt Q64669 for this entry: O=C(N[C@@H](Cc1ccccc1)C(=O)n1nnc2ccccc21)OCc1ccccc1
1.3

Report Ratio on UniProt Q64669 for this entry: CC(C)(C)OC(=O)NCC(=O)OC[C@H](NC(=O)[C@H](Cc1ccccc1)NC(=O)OCc1ccccc1)C(=O)O
1.1

Report Ratio on UniProt Q64669 for this entry: C[C@H](NC(=O)OCc1ccccc1)C(=O)n1nnc2ccccc21
1

Report Ratio on UniProt Q64669 for this entry: C[C@H](NC(=O)OCc1ccccc1)C(=O)N[C@@H](Cc1ccccc1)C(=O)n1nnc2ccccc21
1.2

Report Ratio on UniProt Q64669 for this entry: O=C(N[C@@H](Cc1ccccc1)C(=O)NCC(=O)n1nnc2ccccc21)OCc1ccccc1
0.9

Report Ratio on UniProt Q64669 for this entry: CC(C)(C)OC(=O)NCC(=O)OC[C@H](NC(=O)[C@@H](N)Cc1ccccc1)C(=O)O (H-Phe-Ser([Gly-Boc])-OH)
2.4

Report Ratio on UniProt Q64669 for this entry: C[C@H](NC(=O)OC(C)(C)C)C(=O)n1nnc2ccccc21
1.2

Report Ratio on UniProt Q64669 for this entry: O=C(N[C@@H](Cc1ccccc1)C(=O)N[C@H](CO)C(=O)O)OCc1ccccc1
1.5

Report Ratio on UniProt Q64669 for this entry: C[C@H](NC(=O)OCc1ccccc1)C(=O)N[C@@H](CO)C(=O)O
1.1

* * *

# Tested on: HEK293
# ASSAY COMMENT: Inhibition of TNF-alpha activated nuclear factor-kappa B in HEK293 cells at 20 ug/ml after 6 hrs by luciferase reporter gene assay relative to control
# Assay type: cell-based
# CONDITIONS: Homo sapiens
Where a SMILES comes first, the peptide text is derived from it. Side-chain parts run from the residue outwards. The star is where a group is joined. Cbz = O=C(OCc1ccccc1)*; Boc = CC(C)(C)OC(=O)*
Categorize each record by its inhibition using low: < 10%; medium: ≥ 10% and < 30%; high: ≥ 30%

For C[C@H](NC(=O)OCc1ccccc1)C(=O)N[C@H](CO)C(=O)O , which inhibition bin applies?
medium

For CC(C)(C)OC(=O)NCC(=O)OC[C@H](NC(=O)[C@H](Cc1ccccc1)NC(=O)OCc1ccccc1)C(=O)O , which inhibition bin applies?
low

For CC(C)(C)OC(=O)NCC(=O)n1nnc2ccccc21 , which inhibition bin applies?
high

For C[C@H](NC(=O)OCc1ccccc1)C(=O)N[C@@H](COC(=O)CNC(=O)OC(C)(C)C)C(=O)O (Cbz-Ala-Ser([Gly-Boc])-OH) , which inhibition bin applies?
medium

For C[C@H](NC(=O)OCc1ccccc1)C(=O)n1nnc2ccccc21 , which inhibition bin applies?
high

For O=C(N[C@@H](Cc1ccccc1)C(=O)NCC(=O)n1nnc2ccccc21)OCc1ccccc1 , which inhibition bin applies?
medium

For C[C@H](OC(=O)CNC(=O)OC(C)(C)C)[C@H](NC(=O)[C@H](Cc1ccccc1)NC(=O)OCc1ccccc1)C(=O)O , which inhibition bin applies?
low

For C[C@H](O)[C@H](NC(=O)[C@H](Cc1ccccc1)NC(=O)OCc1ccccc1)C(=O)O , which inhibition bin applies?
high

For O=C(N[C@@H](Cc1ccccc1)C(=O)N[C@@H](CO)C(=O)O)OCc1ccccc1 , which inhibition bin applies?
medium

For c1ccc2[nH]nnc2c1 , which inhibition bin applies?
low

For C[C@H](NC(=O)OCc1ccccc1)C(=O)N[C@@H](Cc1ccccc1)C(=O)n1nnc2ccccc21 , which inhibition bin applies?
high

For CC(C)(C)OC(=O)NCC(=O)OC[C@H](NC(=O)[C@@H](N)Cc1ccccc1)C(=O)O (H-Phe-Ser([Gly-Boc])-OH) , which inhibition bin applies?
medium

For C[C@H](OC(=O)CNC(=O)OC(C)(C)C)[C@H](NC(=O)[C@@H](N)Cc1ccccc1)C(=O)O , which inhibition bin applies?
medium

* * *

# ASSAY COMMENT: Cytotoxicity against HEK293 cells assessed as cell survival at 20 ug/ml after 6 hrs by SRB assay relative to control
# Format: cell-based
# CONDITIONS: human, read-out: Survival
Where a SMILES comes first, the peptide text is derived from it. Side-chain parts run from the residue outwards. The star is where a group is joined. Boc = CC(C)(C)OC(=O)*
EXPERIMENTAL READOUT: viability at 6 h, 20 ug/ml
# include the unit after the value

Name the recorded viability at 6 h, 20 ug/ml of the item C[C@H](NC(=O)OC(C)(C)C)C(=O)n1nnc2ccccc21 in your answer.
122%

Name the recorded viability at 6 h, 20 ug/ml of the item CC(C)(C)OC(=O)NCC(=O)OC[C@H](NC(=O)[C@@H](N)Cc1ccccc1)C(=O)O (H-Phe-Ser([Gly-Boc])-OH) in your answer.
121%

Name the recorded viability at 6 h, 20 ug/ml of the item C[C@H](NC(=O)OCc1ccccc1)C(=O)N[C@H](C(=O)O)[C@H](C)O in your answer.
116%

Name the recorded viability at 6 h, 20 ug/ml of the item CC(C)(C)OC(=O)NCC(=O)OC[C@H](NC(=O)[C@H](Cc1ccccc1)NC(=O)OCc1ccccc1)C(=O)O in your answer.
136%

Name the recorded viability at 6 h, 20 ug/ml of the item O=C(N[C@@H](Cc1ccccc1)C(=O)n1nnc2ccccc21)OCc1ccccc1 in your answer.
104%

Name the recorded viability at 6 h, 20 ug/ml of the item O=C(N[C@@H](Cc1ccccc1)C(=O)N[C@H](CO)C(=O)O)OCc1ccccc1 in your answer.
122%

Name the recorded viability at 6 h, 20 ug/ml of the item CC(C)(C)OC(=O)NCC(=O)n1nnc2ccccc21 in your answer.
110%

Name the recorded viability at 6 h, 20 ug/ml of the item C[C@H](NC(=O)OCc1ccccc1)C(=O)N[C@@H](Cc1ccccc1)C(=O)n1nnc2ccccc21 in your answer.
104%

Name the recorded viability at 6 h, 20 ug/ml of the item c1ccc2[nH]nnc2c1 in your answer.
99.7%

Name the recorded viability at 6 h, 20 ug/ml of the item C[C@H](NC(=O)OCc1ccccc1)C(=O)n1nnc2ccccc21 in your answer.
126%

* * *

For each of the molecules below, state its Ratio.
# ASSAYED TARGET: UniProt Q64669
# ASSAY COMMENT: Activation of Quinone reductase-1 in mouse Hepa-1c1c7 cells assessed as induction ratio at 20 ug/ml after 48 hrs by MTT assay
# Format: cell-based
Give a plain numeric answer without units written out.

Name the recorded Ratio of the item CC(C)(C)OC(=O)NCC(=O)OC[C@@H](NC(=O)[C@H](Cc1ccccc1)NC(=O)OCc1ccccc1)C(=O)O in your answer.
1.1

Name the recorded Ratio of the item C[C@H](NC(=O)OCc1ccccc1)C(=O)N[C@H](C(=O)O)[C@H](C)O in your answer.
1.7

Name the recorded Ratio of the item c1ccc2[nH]nnc2c1 in your answer.
1.2
